Kindly supply the reported activation at 0.1 µM values for the records listed here.
experimental_target: glucocerebrosidase (Gcase) (Homo sapiens)
Sequence (P04062 40-536): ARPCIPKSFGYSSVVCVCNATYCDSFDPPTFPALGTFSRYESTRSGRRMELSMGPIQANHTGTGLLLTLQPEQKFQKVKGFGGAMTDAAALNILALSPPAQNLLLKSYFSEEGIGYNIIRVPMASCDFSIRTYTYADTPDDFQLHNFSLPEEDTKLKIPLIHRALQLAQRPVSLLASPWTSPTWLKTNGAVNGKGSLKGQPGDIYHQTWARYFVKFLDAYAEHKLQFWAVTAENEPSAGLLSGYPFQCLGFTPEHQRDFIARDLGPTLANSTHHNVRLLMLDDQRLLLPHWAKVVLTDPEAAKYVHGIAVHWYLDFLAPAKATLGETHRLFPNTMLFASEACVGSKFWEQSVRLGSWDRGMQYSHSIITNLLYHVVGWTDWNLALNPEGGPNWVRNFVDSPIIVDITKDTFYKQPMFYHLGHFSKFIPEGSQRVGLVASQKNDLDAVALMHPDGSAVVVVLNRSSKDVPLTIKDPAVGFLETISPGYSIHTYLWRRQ
experiment_notes: Glucocerebrosidase (Gcase) activation assay, 4-methylumbelliferyl-beta-D-glucopyranoside substrate, fluorescence
Format: biochemical
measurement_setup: 0.25 h, pH 4.7, test compound at 0.1 μM, 10 nM GCase, 100 nM saposin C, read-out: Percent Gcase Activation 0.1 μM Test Compound
Method: The ability of exemplary compounds to activate glucocerebrosidase (Gcase) was measured. A 484 μL aliquot of a 1.0 mg/mL solution of phosphatidylserine (PS) (Sigma P7769) in chloroform was evaporated under a stream of nitrogen for 1 hour. The lipid film was dissolved over 4 minutes of vigorous vortexing in 40 mL of 176 mM K2HPO4/50 mM citric acid (pH 4.7) containing 7.5 μL of triton X-100, resulting in a mixed micellar preparation with a composition of 0.32 mM triton and 0.37 mol % PS. […]

Here is how some compounds turned out for activation at 0.1 µM.
compound	measured
Cc1cc(C)n2ccc(C(=O)NC(C)c3ccc(-n4cccn4)cc3)c2n1 (centres unmarked)	10 to 20%
Cc1c2c(nc3c(C(=O)NC(C)(C)C4CC4)ccn13)CCC2	10 to 20%
Cc1cc(-c2ccncc2)nc2c(C(=O)NC(C)(C)C3CC3)ccn12	10 to 20%
Cc1cc(C)n2ccc(C(=O)NC(C)c3nnn(-c4ccccc4)n3)c2n1 (centres unmarked)	< 10%
CCC(NC(=O)c1ccn2c(C)cc(C)nc12)C12CC3CC(C1)C(C3)C2 (centres unmarked)	> 20%
Cc1cc(C)n2ccc(C(=O)NC(C)c3ccc(-c4ccccc4)cc3)c2n1 (centres unmarked)	> 20%
Cc1cc(C)n2ccc(C(=O)NC(C)C3COc4ccccc4O3)c2n1 (centres unmarked)	< 10%
Cc1cc(C(F)F)n2ccc(C(=O)N[C@H]3CC[C@H](OCC(C)C)CC3)c2n1	> 20%

Would you mind giving activation at 0.1 µM for every compound in the list below?
1. COCc1cc(C)nc2c(C(=O)NC(C)(C)C3CC3)ccn12
2. Cc1cc(C(F)F)nc2c(C(=O)N[C@H]3CC[C@H](OCC(C)C)CC3)ccn12

## Result
1. > 20%
2. > 20%
